testMethodNotes: Thermodynamic solubility in PBS pH 7.4 and in 5% HSA in PBS
Type: physicochemical
conditionsUsed: aqueous buffer, thermodynamic from solid; PBS pH 7.4, saturated, LC/MS; read-out: Thermodynamic solubility in PBS pH 7.4
Where a name gives a salt, the structure may show the parent alone.
Given measured solubility thermodynamic, output met if it is greater than or equal to 50 µg/mL and not met if not.

CN1CCCC(n2nc(Cc3ccc(Cl)cc3)c3ccccc3c2=O)CC1 (centres unmarked) [Azelastine HCl]    met
NC(=O)Cc1cccc(C(=O)c2ccccc2)c1N    not met
C[C@@H]1CN([C@H]2CC[C@](C#N)(c3ccc(F)cc3)CC2)CC[C@]1(C(=O)O)c1ccccc1 [Levocabastine HCl]    not met
CCN[C@H]1CN(CCCOC)S(=O)(=O)c2sc(S(N)(=O)=O)cc21 [Brinzolamide]    met

q: Does "O=C(Nc1c(F)c(F)c(-c2cccc(OC(F)(F)F)c2)c(F)c1F)c1ccsc1C(=O)O" have a reported solubility thermodynamic of at least 50 µg/mL?
a: not met

src = patent US12472263B2
